yeast fitness (ln) listing for selected variants.
B1: tRNA (parent)
chain: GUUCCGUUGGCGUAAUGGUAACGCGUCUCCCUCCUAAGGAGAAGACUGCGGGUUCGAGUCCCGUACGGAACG

variants of: B1; assay: yeast fitness, log relative to wild type (ln ratio); higher = fitter; tRNA-Arg(CCU), competitive growth, 37 C, 1 M NaCl

Changes | yeast fitness (ln)
G1A G6U A43C C66A A69G A70G C71U | -0.348
G1A U2C G6U C27U A70U | -0.134
U2C C46U A69G A70G C71U | -0.0139
G1A U2C C27U A43C C71U | -0.0487
G1A U2C G6A C27U C46U A70G | -0.0476
U2G G6A C46U C66U A70G C71U | -0.35
G1A U2G G6U A43C C46U C71U | -0.335
U2C G6U C46U C66A A69G A70U C71U | -0.185
G1A U2G A43C C46U C66U A69G A70U | -0.181
U2C G6A C27U A43C C66U A69G C71U | -0.35
G1A C27U C46U C66U A69G A70U C71U | -0.504
